Molecular target: HLA-A*68:02
Test: IEDB peptide-MHC binding, purified MHC/competitive/fluorescence; filed as Kd, often an IC50 or EC50 that approximates it; bounds were set here for any values at or beyond the usual limits of such assays
Details: source organism: Giardia lamblia ATCC 50803
pKd: −log10 of the molar value.

[
  {
    "macromolecule.sequence": "KSNRIPFLY",
    "pKd": "≤ 4.70"
  }
]

----------
Molecular target: HLA-A*02:11
Assay: IEDB peptide-MHC binding, purified MHC/competitive/fluorescence; filed as Kd, often an IC50 or EC50 that approximates it; bounds were set here for any values at or beyond the usual limits of such assays
Conditions: source organism: Campylobacter jejuni subsp. jejuni NCTC 11168 = ATCC 700819

[
  {
    "macromolecule.sequence": "LELAEITAE",
    "study.system": "HLA-A*02:11",
    "Kd": "≥ 20 µM"
  }
]
